Listed here are variants together with their documented protein stability index.
B1: FBXO39 (parent)
chain: RVFKARIYTNRYETNEEDKTLQEI

# Variants of: B1
# experimental-details: protein stability index of a GFP-peptide fusion (GPS, HEK-293T) (PSI 1-6); higher = more stable;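 further: lentivirally expressed fusions sorted by FACS into six bins by GFP to DsRed ratio, PSI derived from sequencing read proportions per bin multiplied by bin number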
# condition-notes: c terminus: a fixed tail appended
Simply state the number, no unit and no words.

Sample answers from the record:
query-sequence | protein stability index
RVFKARIYTNRYETNEEDVTLQEI [K19V] | 2.62
RVFKARIYTNRYETNEEDKTLTEI [Q22T] | 1.98
RFFKARIYTNRYETNEEDKTLQEI [V2F] | 3.18
RVFKARIYTNRYETNEEDKTLQLI [E23L] | 2.42
RVHKARIYTNRYETNEEDKTLQEI [F3H] | 4.63

Form field: reported protein stability index of RVFKARSYTNRYETNEEDKTLQEI [I7S] 3.39

GET /values?readout=protein stability index&item= TVFKARIYTNRYETNEEDKTLQEI [R1T] 2.72

GET /values?readout=protein stability index&item= RVRKARIYTNRYETNEEDKTLQEI [F3R] 4.71

Which protein stability index value is on record for RVFKADIYTNRYETNEEDKTLQEI [R6D] ? 4.04

State the recorded protein stability index for this entry: RVFKARIYTNRYRTNEEDKTLQEI [E13R] 2.79

Could you share which protein stability index value was measured for RVFKARIYTPRYETNEEDKTLQEI [N10P] ? 2.21

Requested field: protein stability index. Item: RVFKARIYTNRYETNEEDKTLQII [E23I] 1.88
